FYI, the data here is from patent US20220162323A1.

Entries annotated with measured t1/2
- measurement target: T1, hFGFR2b.mmh (human)
- T1 construct: also called Human FGFR2b with C-terminal myc-myc-hexahistidine tag
- T1 chain: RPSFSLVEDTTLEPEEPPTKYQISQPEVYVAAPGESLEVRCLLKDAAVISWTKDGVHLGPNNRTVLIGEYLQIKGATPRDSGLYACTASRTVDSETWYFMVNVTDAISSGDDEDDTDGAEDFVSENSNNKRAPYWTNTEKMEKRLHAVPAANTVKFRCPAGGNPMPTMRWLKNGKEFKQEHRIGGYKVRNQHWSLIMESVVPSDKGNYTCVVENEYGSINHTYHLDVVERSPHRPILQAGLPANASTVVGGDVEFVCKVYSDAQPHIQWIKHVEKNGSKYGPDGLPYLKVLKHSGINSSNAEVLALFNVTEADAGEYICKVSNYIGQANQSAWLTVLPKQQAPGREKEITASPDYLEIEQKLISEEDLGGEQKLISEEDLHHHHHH
- method description: SPR (Biacore), ADC captured by anti-human Fc, hFGFR2b-MMH as analyte, 25 C
quantity kind: t1/2 (min)

[[record]]
binder = "mAb2-tubulysin 1ALP (antibody, V domains shown, deglycosylated; Q295 carries azido-PEG3-amine clicked to Tubulysin 1A-LP; DAR 2.1 per antibody, also called Anti FGFR2 mAb2-PEG3-N3-Tubulysin 1A-LP) VH: QVQLVESGGGVVQPGKSLRLSCAASGFTFSNYGMHWVRQTPVKGLEWVTLIWYDGSNKYYTDSVKGRFTISRDNSKNTLYLQMNSLRSEDTAVYYCAREGNWNYGHAFDIWGQGTMVTVSS VL: DIQMTQSPSTLSASVGDRVTITCRASQNIGNWLAWYQQKPGKAPNLLIYKASTLESGVPSRFSGSGSGTEFTLTISSLQPDDFATYNCQQYNSYSPTFGQGTKLEIKR"
quantity_kind = "t1/2"
test_value = 9.8

[[record]]
binder = "mAb1-maytansinoid 1ALP (antibody, V domains shown, maytansinoid 1ALP (mc-VC-PAB-NMe-C3-May) linker-payload conjugated; residues not stated in Example 5; DAR 2.5 per antibody, it is written on the heavy chain only for want of a better place) VH: QVQLVESGGGVVQPGRSLRLSCAASGFTFSSYGMHWVRQAPGKGLEWVAVIWYDGSNKYYADSVKGRFTISRDNSKNTLYLQMNSLRAEDTAVYYCAREESSASGVDYWGQGTLVTVSS VL: EIVLTQSPGTLSLSPGERATLSCRASQSVSTRYLAWYQQKRGQAPRLLIYGASSRATGIPDRFSGSGSGTDFTLTISRLEPEDFAVYYCQEYGSSSITFGQGTRLEIKR"
quantity_kind = "t1/2"
test_value = 11.1

[[record]]
binder = "mAb2-maytansinoid 1ALP (antibody, V domains shown, maytansinoid 1ALP (mc-VC-PAB-NMe-C3-May) linker-payload conjugated; residues not stated in Example 5; DAR 1.9 per antibody, it is written on the heavy chain only for want of a better place; also called FGFR2 maytansinoid ADC) VH: QVQLVESGGGVVQPGKSLRLSCAASGFTFSNYGMHWVRQTPVKGLEWVTLIWYDGSNKYYTDSVKGRFTISRDNSKNTLYLQMNSLRSEDTAVYYCAREGNWNYGHAFDIWGQGTMVTVSS VL: DIQMTQSPSTLSASVGDRVTITCRASQNIGNWLAWYQQKPGKAPNLLIYKASTLESGVPSRFSGSGSGTEFTLTISSLQPDDFATYNCQQYNSYSPTFGQGTKLEIKR"
quantity_kind = "t1/2"
test_value = 13.1

[[record]]
binder = "mAb1-tubulysin 1ALP (antibody, human IgG4 S228P, kappa, V domains shown, deglycosylated; Q295 carries azido-PEG3-amine clicked to Tubulysin 1A-LP; DAR 2.1 per antibody, also called Anti FGFR2 mAb1-PEG3-N3-Tubulysin 1A-LP) VH: QVQLVESGGGVVQPGRSLRLSCAASGFTFSSYGMHWVRQAPGKGLEWVAVIWYDGSNKYYADSVKGRFTISRDNSKNTLYLQMNSLRAEDTAVYYCAREESSASGVDYWGQGTLVTVSS VL: EIVLTQSPGTLSLSPGERATLSCRASQSVSTRYLAWYQQKRGQAPRLLIYGASSRATGIPDRFSGSGSGTDFTLTISRLEPEDFAVYYCQEYGSSSITFGQGTRLEIKR"
quantity_kind = "t1/2"
test_value = 7.4

